System: A549 NSCLC
Test: NCI tumour cell line growth inhibition, 48 h
Where a SMILES comes first, the peptide text is derived from it. [ ]: non-standard residue; d: D form. The star is where a group is joined. dTle = CC(C)(C)[C@@H](N)C(=O)O; 4Abz = Nc1ccc(C(=O)O)cc1; NHOH = ON*
Measured TGI accompanies every entry in the list below.

| Molecule | TGI |
| --- | --- |
| CCOC(=O)C#Cc1c(C(=O)OCC)nnn1Cc1ccc([N+](=O)[O-])cc1 | 34.8 µM |
| CC(=O)OCC(C)(COC(C)=O)N1C(=O)C2C3c4ccccc4C(c4ccccc43)C2C1=O (configuration not stated) | > 100 µM |
| Cc1ccc(C(=O)/C(=C\c2ccc([N+](=O)[O-])cc2)S(=O)Cc2ccc(Cl)cc2)cc1 (configuration not stated) | 11 µM |
| C[C@@H](NC(=O)[C@H](NC(=O)[C@@H]1CCCN1C(=O)CNC(=O)c1ccc(N)cc1)C(C)(C)C)C(=O)NO (H-[4Abz]GP[dTle][dA]-{NHOH}) | > 100 µM |
| Fc1cccc(-n2ccc(-c3ccccc3)nc2=S)c1 | > 87.3 µM |
| CCOC(=O)C(CC/C=C\c1ccccc1)N1CCC[C@H]1C(=O)OC (some centres not stated) | > 100 µM |
| C=C(C(=C)N1N=NC2C3CCC(C3)C21)N1N=NC2C3CCC(C3)C21 (configuration not stated) | > 100 µM |
| Cn1c(N)nc(=O)c2c1N(C1OC(CO)C(O)C1O)CN2Cc1ccccc1 (configuration not stated) | > 100 µM |
| CCOC(=O)c1cnc2sc3ccc4ccccc4c3n2c1=O | > 100 µM |
| COC(=O)C12OCC34C(CC5C(C)C6=CC(=O)OC6=CC5(C)C3C(O)C1O)OC(=O)C(O)C24 (configuration not stated) | 23.2 µM |
| O=C1c2c(ccc3c2CCC3)CC12Cc1ccccc1C2 | > 100 µM |
| Cc1cc(N2CCOCC2)nc(N(CCCNc2ccnc3cc(Cl)ccc23)Cc2ccco2)n1 | 13.6 µM |

----------
Recorded measurements of TGI, one per entry
Test system: NCI-H226 lung
Assay: NCI tumour cell line growth inhibition, 48 h

| Molecule | TGI |
| --- | --- |
| CC(=O)[CH-]C(=O)c1ccccc1.CC(=O)[CH-]C(=O)c1ccccc1.Cc1cc([O-])ccc1Cl.Cc1cc([O-])ccc1Cl.[Ti+4] | 69.2 µM |
| ONC1=Nc2ccccc2C(=S)N2CSCC12 (configuration not stated) | > 100 µM |
| O=C(NO)[C@@H](Cc1ccccc1)NS(=O)(=O)c1ccc(-c2ccccc2)cc1 | > 25 µM |
| C#CCN(N=O)C(=O)NCCCCC(NC(C)=O)C(=O)NCc1ccccc1 (configuration not stated) | > 100 µM |
| CN(CC(=O)Nc1nc2ccccc2[nH]1)S(=O)(=O)c1ccc(Cl)cc1 | > 100 µM |
| COc1cc(C(=O)CC2OC(=O)C(Cl)=C2Cl)ccc1Cl (configuration not stated) | > 100 µM |
| CC(C)(C)OC(=O)NCCNCCNc1ccccc1 | > 100 µM |
| Clc1ccccc1CNc1c2ccccc2nc2ccccc12 | 10.1 µM |
| Cc1nc2[nH]ncn2c(=O)c1CCCl | > 10 µM |
| O=C(N/N=C/c1ccc(O)cc1O)c1cccc(Nc2ccnc(C(F)(F)F)c2)c1 | 9.44 µM |
| Cc1cc(N2CCOCC2)nc(N(CCCNc2ccnc3cc(Cl)ccc23)Cc2ccco2)n1 | 33.9 µM |
| COC(=O)C(COC(=O)/C=C/c1ccc(OC(C)=O)c(OC(C)=O)c1)NC(=O)/C=C/c1ccc(OC(C)=O)c(OC(C)=O)c1 (configuration not stated) | > 100 µM |
| CCN(CC)C(=S)SCN1C(=O)c2ccccc2S1(=O)=O | > 100 µM |
| O=c1cc(N=Nc2ccc(Cl)c(Cl)c2)[nH]c(=O)[nH]1 | 33.2 µM |
| Cc1ccc(C(=O)/C(=C\c2ccc([N+](=O)[O-])cc2)S(=O)Cc2ccc(Cl)cc2)cc1 (configuration not stated) | 11.5 µM |
| CCC(=O)Nc1ccc(C)c(-c2ccc(C(=O)NCC3CC3)cc2)c1 | > 25 µM |
| Cc1cn2c(/C=N/N=C(N)N)c(-c3ccccn3)nc2s1 | > 58.2 µM |
| CC(=O)OC[C@@]12Cc3ccc(C)c(O)c3[C@]1(C)[C@@H](OC(C)=O)[C@]1(O)[C@H]([C@@H](OC(=O)c3ccccc3)[C@@H](C)[C@H]1OC(C)=O)[C@H]2OC(C)=O | > 50 µM |
| CCCCCCCCCCCCCCCCOP(=O)(O)OCC(NC(C)=O)C(=O)O (configuration not stated) | > 100 µM |
| Nc1n[n+](-c2ccccc2)no1 | > 100 µM |
| CC1CN(c2cc3c(cc2F)c(=O)c(C(=O)O)cn3-c2ccc(F)cn2)CC(C)N1 (configuration not stated) | > 100 µM |
| CC1(C)NCCC[C@]2(C)[C@H]3CC[C@@H]4[C@H]5[C@H](C(=O)/C=C/c6ccccn6)CC[C@]5(CO)CC[C@@]4(C)[C@]3(C)CC[C@@H]12 | 20.7 µM |
| O=C1C=CC(=O)N1c1cccc(N2C(=O)C=CC2=O)c1 | 7.63 µM |
| O=C1c2ccccc2-c2c1c1c(O)cccc1n2Cc1ccccn1 | 65.3 µM |
| CCN(CC)c1ccc(/C=C/C(=O)c2cc(C(C)(C)C)c(O)c(C(C)(C)C)c2)cc1 | 99.1 µM |
| COc1ccc(C2=C(N)c3ncccc3C2=O)cc1 | > 100 µM |
| CCNC12CCC(C1)C(C)(C)C2=O (configuration not stated) | > 100 µM |
| Clc1ccc(OCc2nnc3sc(-c4ccc(-c5ccc(Cl)cc5Cl)o4)nn23)cc1 | > 100 µM |
| O=c1c(-c2ccccc2F)coc2cc(F)ccc12 | > 100 µM |
| O=C1c2c(ccc3c2CCC3)CC12Cc1ccccc1C2 | 62.8 µM |
| CSC1=NNC(SC)=NN1 | 0.389 µM |
| CC(NC(=O)c1ccc(NP(=O)(OCc2ccc([N+](=O)[O-])o2)N(C)CCCCCl)cc1)c1ccc(OCC2CCCCC2)c(C(N)=O)c1 (configuration not stated) | 45.1 µM |
| C=CCN1/C(=C2\SC(=S)N(c3ccc(C)cc3)C2=O)Sc2c1nc[nH]c2=O | > 100 µM |
| CSc1nc(C)c(CCOC(C)=O)c(Cl)n1 | > 100 µM |
| CN=C(N)c1ccc(N=C(N)c2ccc(C(N)=Nc3ccc(C(N)=NC)cc3)cc2)cc1 | > 100 µM |
| CCOC(=O)c1cc(-c2ccccc2)[nH]c1N/N=C/c1ccc(Cl)cc1 | > 100 µM |
| Cc1[nH]c(=O)[nH]c1C(=O)c1ccc(-n2ccnc2)cc1 | > 100 µM |

Source of measurements: PubChem BioAssay (NCI)
